# Assay remarks: yeast display, Sf9 membrane polyspecificity reagent, FACS + sequencing; frameworks hold sequencing errors
Assay metric: polyreactivity (PSR sort gate)

Sequence entry	Result
QVQIVESGGGLVQAGGSLRLICAASGRILSANAMGWYRQAPGKERELVAAITYSGDNTYYADYVKGRFTISRDNANNTVYLQMNSLKPEDTAVYYCAREFQVDGGEEDYWGQGTQVTVSS	low polyreactivity
QVQLVESGGGLVQAGGSLRLSCAASGSILGTYAMGWYRQAPGKERELVAAITLSTDGTYYADSVKGRFTISRDNAKNTVYLQMNSLKPEDTAVDYCAAPWNWRWVTQWGYYVRADYFWGQGTQVTVSS	low polyreactivity
QVQLVETGGGLVQAGGSLRLSCAASGFTFPYNAMGWYRQAPGKERELVAAISSTGGITYYADSVKGRFTISRDNAKNTVYLQMNSLKPEDTAVYYCGWYDYWGQGTQVTVSS	low polyreactivity

These entries and their values trace back to the nanobody polyreactivity screen of Harvey et al. (2022).
